Test system: UO-31 renal
Test: NCI tumour cell line growth inhibition, 48 h
observable: GI50

Examples with their reported GI50 follow.
N#C/C(N)=C(\C#N)N=Cc1csc2ccccc12: 91.2 µM
COc1ccc(-c2nnc(N3CCN(C(=O)CN4CCN(c5ccc(Cl)cc5)CC4)CC3)nc2-c2ccc(OC)cc2)cc1: 6.92 µM
C1=C(c2ccccc2)C(c2ccc(OCCN3CCCCC3)cc2)Oc2ccccc21 (stereo unspecified): 1.41 µM

Look up GI50 for this compound: CC(=O)c1cc2c(c3ccsc13)-c1ccccc1CC2 26.6 µM

Which GI50 is reported for this compound? C/C1=C\C/C=C(\C)[C@H]2CC(CC/C(C)=C/CC1)[C@](C)(C=O)O2 > 100 µM

Which GI50 value is on record for COc1cc(NCc2ccccc2O)c2ncccc2c1 ? 7.17 µM

Sourced from PubChem BioAssay (NCI)
